Hello, the source for this data is patent EP1053750A1, in case you need it.

# SYSTEM UNDER TEST: chymotrypic activity of the proteasome (Bos taurus, UniProt Q32KL2)
# Construct: endogenous in cells; host or cells: primary bovine aortic endothelial cells (BAE), total lysate after 15-16 h treatment of the cells
# Sequence (Q32KL2 60-263): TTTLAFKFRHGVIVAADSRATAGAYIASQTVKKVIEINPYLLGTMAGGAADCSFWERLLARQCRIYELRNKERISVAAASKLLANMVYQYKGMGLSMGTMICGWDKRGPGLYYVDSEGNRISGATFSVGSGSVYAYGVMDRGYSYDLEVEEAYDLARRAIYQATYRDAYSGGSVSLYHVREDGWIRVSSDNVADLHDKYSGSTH
# ASSAY METHOD TEXT: Proteasomal activity in lysates of treated BAE cells, substrate Suc-LLVY-AMC
# Assay type: cell-based, bovine
# EXPERIMENTAL SETUP: total cell lysates after 15 h incubation of BAECs with 50 µM inhibitor
Peptide text beside a SMILES is read from it.
ENDPOINT NAME: cleavage of Suc-Leu-Leu-Val-Tyr-AMC

CC(C)C[C@H](NC(=O)[C@H]1O[C@@H]1C(=O)O)C(=O)NCCCCN=C(N)N [E64]    not
CC(=O)N[C@@H](CC(C)C)C(=O)N[C@@H](CC(C)C)C(=O)N[C@H](C=O)CCCNC(=N)N [Leupeptin]    not
CSCC[C@@H](C=O)NC(=O)[C@H](CC(C)C)NC(=O)[C@H](CC(C)C)NC(C)=O [LLnM] (Ac-Leu-Leu-Met-aldehyde)    not
